B1: TPR t1 (parent)
chain: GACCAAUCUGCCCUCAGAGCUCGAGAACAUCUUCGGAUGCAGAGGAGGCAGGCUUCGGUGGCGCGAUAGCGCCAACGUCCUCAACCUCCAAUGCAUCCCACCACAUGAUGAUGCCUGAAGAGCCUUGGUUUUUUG

- Variants of: B1
- assay.text: polymerase ribozyme fitness, log enrichment relative to wild type (log ratio); higher = more active; in vitro selection for triplet polymerase activity
Outcome label depends on polymerase ribozyme fitness (log ratio) relative to -1: at/above gives t, below gives f.

Use these answered entries as a reference point.
GACCAAUCUACCCUCAGAGCUCGAGCACAUCUUCGUAUGCAGAGCAGGCAUGCUUCGGUGGCGCGAUAGUGCCAACGUACUCAACCUCCAAUGCAUCUCACCACAUGAUGAUGCCUGAAGAGUCUUUGUUUUUUG [G10A A26C G36U G45C G51U C70U C79A C98U C123U G127U] | f
GACCAAUCUGCCCUCAGAGCUCGAGAACAUCUUCGGAUGCAGAGGAGGCAGGCUUCGGUGGUGCGAUAGCGCCAACGUCCUCAACCUCCAAUGUAUCCCACCACAUGAUGAUGCCUGAAGAGCCUUGGUUUUUUG [C62U C94U] | t
GACCAAUCUGCCCUCAGAGCUCGAGAACAUCUUCGGAUGCAGAGGAGGCAGGCUUCGAUGGCACGAUAGCGCCAACGUCCUCAACCUCCAAUGCAUCUCACCACAUGAUGAAGCCUGAAGAGCCUUGGUUUUUUG [G58A G63A C98U U112A] | f
GACCAAUCUGCCCUCAGAGCUCGAGAACAUCUUCGGAUGCAGAGGAGGCAGGCUUCGGUGGCGCGAUAGAGCCAACGUCCUCAACCUCCAAUGCAUCCCACCACAUGAUGAUGCCUCAAGAGCCUUGGUUUUUUG [C70A G117C] | f
GACCAAUCUGCCCUCAGAGCUCGAGAACAUCUUCGGAUGCAGAGGAGGUAGGCUUCGGUGGCGCGAUAGCGCCAACGUCCUCAACCUCCAAUGCAUCCCACCACAUGAUGAUGCCUGAUGAGUCUUGGUUUUUUG [C49U A119U C123U] | t
GACCAAUCUGCGCUCAGAGCUCGAGAACAUCUUCGGAUGCAGAGGCGGCAGGAUUCGGUGGCGCGAUAGCGCCAACGUCCUCAACCUCCAAUGCAUCCCACCAAAUGAUGAUGCCUGAAGAGUCUUGGUUUUUUG [C12G A46C C53A C104A C123U] | f

Input line: Dear colleague, could you confirm whether GACCAAUCUGUCCUCAGAGGUCGAGAACAUCUUCGGAUGCAGAGGAGGCAGGCUUCGGUGGCGCGAUAGCGUCAACGUCCUCAACCUCCAAUGCAUCCCACCACAUGAUGAUGCCUGAAGAGCCUUGGUUUUUUG [C11U C20G C72U] has polymerase ribozyme fitness (log ratio) at or above -1?
Output line: f

Input line: Dear colleague, could you confirm whether GACCAAUCUGGCCUCAGAGCUCGAGAACAUCUUCGGAUGCAGAGGAGGCAGGCUUCGGUGGCGCGAUAGCGCCAACGUCCUCAACCUCCAAUGCAUCCCACCACAUGAUGAUGCCUUAAGAGCCUUGGUUUUUUG [C11G G117U] has polymerase ribozyme fitness (log ratio) at or above -1?
Output line: f

Input line: Dear colleague, could you confirm whether GACCAAUCUGCCCUCAGAGCUCGAGAACAUCUUCGAAUGCAGAGGAGGAAGGCUUUGGUGGCGCGAUAGCGCCAACGUCCUCAACCUCCAAUGCAUCCCACCACAUGAUGAUGCCUGAAGAGCCUUGGUUUUUUG [G36A C49A C56U] has polymerase ribozyme fitness (log ratio) at or above -1?
Output line: t

Input line: Dear colleague, could you confirm whether GACCACUCUGCCCUCAGAGCUCGAGAACAUCUUCGGAUGCAGAGGAGGCAGGCUUCGGUGGCGCGAUAGCGUCAACGUCCUCAACCUCCAAUGCAUCCCACCACAUGAUGAUGCCUGAAGAGCCUUGGUUUUUUG [A6C C72U] has polymerase ribozyme fitness (log ratio) at or above -1?
Output line: t
